Source listed as patent US7101878B1.

# Cmax listing for each entry below
Assay: Pharmacokinetic studies / bioavailability in rats
Assay type: in vivo, rat
Settings: male, rat, plasma, po, 10 mg/kg, rat male; p.o. 10 mg/kg; vehicle per footnote
Your answer is read as nM, so omit the unit and give the number.

Example cases with answers are listed next.
compound: Cc1cc2c(cc1Cc1ccc(C(=O)NCC3CCCC(CNc4nccc(NCC5CCCO5)n4)C3)o1)C(C)(C)CCC2(C)C (stereo not drawn)
recorded.value: 150

compound: COc1cc(OC)c(NC(=O)c2ccc(Cc3cc4c(cc3C)CCCC4(C)C)o2)c(OC)c1
recorded.value: 350

Bench note: what Cmax did Cc1ccc(CNC(=O)c2ccc(Cc3cc4c(cc3C)C(C)(C)CCC4(C)C)o2)cc1 show?
1600
